experiment: in vivo; conditions: female, athymic nude-Foxn1^nu/Foxn1^+, mouse, 20 pmol, total radioactivity, Biodistribution Spleen
Where a SMILES comes first, the peptide text is derived from it. Bridges are numbered along the chain shown (N, C = ends). [ ]: non-standard residue; d: D form. The star is where a group is joined. dPhe(4-NHCONH2) = NC(=O)Nc1ccc(C[C@@H](N)C(=O)O)cc1; Phe(4-Cl) = N[C@@H](Cc1ccc(Cl)cc1)C(=O)O; X1 = NCCNCC(CNCCN)C(=O)*
measurement_kind: tissue uptake at 4 h (%ID/g)
Value expressed in %ID/g; do not type the unit.

C[C@@H](O)[C@@H]1NC(=O)[C@H](CCCCN)NC(=O)[C@@H](Cc2c[nH]c3ccccc23)NC(=O)[C@H](Cc2ccc(O)cc2)NC(=O)[C@H](NC(=O)[C@H](Cc2ccc(Cl)cc2)NC(=O)C(CNCCN)CNCCN)CSSC[C@@H](C(=O)N[C@H](Cc2ccc(O)cc2)C(N)=O)NC1=O [[^99mTc]Tc-TECANT-2, metal not drawn] | 0.55

Kindly review the next compound as well.
Query block: Please report the recorded tissue uptake at 4 h for C[C@@H](O)[C@@H]1NC(=O)[C@H](CCCCN)NC(=O)[C@@H](Cc2ccc(NC(N)=O)cc2)NC(=O)[C@H](Cc2ccc(O)cc2)NC(=O)[C@H](NC(=O)[C@H](Cc2ccc(Cl)cc2)NC(=O)C(CNCCN)CNCCN)CSSC[C@@H](C(=O)N[C@H](Cc2ccc(O)cc2)C(N)=O)NC1=O [[^99mTc]Tc-TECANT-1, metal not drawn] (X1-[Phe(4-Cl)][dC]Y[dPhe(4-NHCONH2)]KTC[dY]-NH2; disulfide 2-7) .
Result block: 0.57
